Just for reference, ChEMBL document CHEMBL1146677 is where these values come from.

molecular target: Vascular endothelial growth factor receptor 2 (Homo sapiens); test: Inhibition of vascular endothelial growth factor receptor 2 autophosphorylation in intact cells
Sequence (P35968 whole entry): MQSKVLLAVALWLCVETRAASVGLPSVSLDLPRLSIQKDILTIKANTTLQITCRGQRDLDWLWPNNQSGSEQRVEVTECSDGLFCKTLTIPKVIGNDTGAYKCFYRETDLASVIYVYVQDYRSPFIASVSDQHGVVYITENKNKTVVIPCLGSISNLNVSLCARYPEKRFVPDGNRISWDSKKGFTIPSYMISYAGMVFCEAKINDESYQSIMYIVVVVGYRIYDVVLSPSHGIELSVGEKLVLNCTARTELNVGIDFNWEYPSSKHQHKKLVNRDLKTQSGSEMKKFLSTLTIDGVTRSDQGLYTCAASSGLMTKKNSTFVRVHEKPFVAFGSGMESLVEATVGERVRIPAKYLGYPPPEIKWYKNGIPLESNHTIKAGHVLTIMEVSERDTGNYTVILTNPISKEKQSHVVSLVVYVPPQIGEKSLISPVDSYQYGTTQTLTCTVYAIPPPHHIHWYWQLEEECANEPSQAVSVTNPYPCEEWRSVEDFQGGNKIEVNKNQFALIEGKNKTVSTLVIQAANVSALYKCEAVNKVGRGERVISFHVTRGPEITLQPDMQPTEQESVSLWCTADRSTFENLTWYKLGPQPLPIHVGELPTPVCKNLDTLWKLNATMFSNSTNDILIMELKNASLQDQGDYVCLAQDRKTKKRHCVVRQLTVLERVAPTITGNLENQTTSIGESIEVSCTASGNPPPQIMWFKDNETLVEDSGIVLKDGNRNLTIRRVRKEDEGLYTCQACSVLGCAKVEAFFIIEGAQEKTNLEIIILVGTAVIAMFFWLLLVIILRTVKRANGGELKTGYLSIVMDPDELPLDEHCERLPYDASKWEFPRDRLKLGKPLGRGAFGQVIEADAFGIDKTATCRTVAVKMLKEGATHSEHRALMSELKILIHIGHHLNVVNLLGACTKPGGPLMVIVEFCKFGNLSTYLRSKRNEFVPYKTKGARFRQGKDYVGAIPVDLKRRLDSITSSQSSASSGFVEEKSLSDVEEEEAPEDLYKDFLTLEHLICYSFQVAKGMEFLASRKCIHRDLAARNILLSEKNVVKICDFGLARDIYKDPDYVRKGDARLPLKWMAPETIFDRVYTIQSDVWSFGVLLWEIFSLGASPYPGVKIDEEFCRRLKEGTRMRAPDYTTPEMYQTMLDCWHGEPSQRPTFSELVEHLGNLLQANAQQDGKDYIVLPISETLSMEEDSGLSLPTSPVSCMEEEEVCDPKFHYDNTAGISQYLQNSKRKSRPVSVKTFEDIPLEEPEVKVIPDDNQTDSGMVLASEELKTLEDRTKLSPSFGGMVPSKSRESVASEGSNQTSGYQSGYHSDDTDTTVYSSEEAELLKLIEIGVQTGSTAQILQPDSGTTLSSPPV
Reported metric: IC50 (µM)

Record smiles: COc1cc2c(Oc3ccc(Nc4ccc(C(C)(C)C)cc4)cc3)ccnc2cc1OCCNCCO
Reported metric: IC50
Recorded result: 0.083

---

biological target: Platelet-derived growth factor receptor (Homo sapiens, UniProt P09619+P16234); experiment: Inhibition of PDGF-receptor autophosphorylation in intact cells

Record smiles: COc1cc2c(Oc3ccc(Nc4ccc(C(C)(C)C)cc4)cc3)ccnc2cc1OCCNCCO
IC50 [nM]: 100

---

pIC50: −log10 of the molar value.
For Fibroblast growth factor receptor 2 (Homo sapiens, UniProt P21802), measured pIC50 is reported for the entries below.

Record smiles: COc1cc2nccc(Oc3ccc(Cc4ccc(C(C)(C)C)cc4)cc3)c2cc1OC
Comparator: <
pIC50: 6.00
--
Record smiles: COc1cc2nccc(Oc3ccc(Nc4ccc(C(C)(C)C)cc4)cc3)c2cc1OC
Comparator: =
pIC50: 7.40
--
Record smiles: COc1cc2c(Oc3ccc(Nc4ccc(C(C)(C)C)cc4)cc3)ccnc2cc1OCCN(CCO)CCO
Comparator: =
pIC50: 7.15
--
Record smiles: COc1cc2nccc(Oc3ccc(Nc4cccc(-c5ccccc5)c4)cc3)c2cc1OC
Comparator: <
pIC50: 5.00
--
Record smiles: COc1cc2nccc(Oc3ccc(Nc4ccc(C(C)(C)C)cc4)c(F)c3)c2cc1OC
Comparator: =
pIC50: 7.20

---

molecular target: Insulin-like growth factor 1 receptor (Homo sapiens); assay: Inhibition of IGF-receptor 1 autophosphorylation in intact cells
Sequence (P08069 31-736 limits assumed): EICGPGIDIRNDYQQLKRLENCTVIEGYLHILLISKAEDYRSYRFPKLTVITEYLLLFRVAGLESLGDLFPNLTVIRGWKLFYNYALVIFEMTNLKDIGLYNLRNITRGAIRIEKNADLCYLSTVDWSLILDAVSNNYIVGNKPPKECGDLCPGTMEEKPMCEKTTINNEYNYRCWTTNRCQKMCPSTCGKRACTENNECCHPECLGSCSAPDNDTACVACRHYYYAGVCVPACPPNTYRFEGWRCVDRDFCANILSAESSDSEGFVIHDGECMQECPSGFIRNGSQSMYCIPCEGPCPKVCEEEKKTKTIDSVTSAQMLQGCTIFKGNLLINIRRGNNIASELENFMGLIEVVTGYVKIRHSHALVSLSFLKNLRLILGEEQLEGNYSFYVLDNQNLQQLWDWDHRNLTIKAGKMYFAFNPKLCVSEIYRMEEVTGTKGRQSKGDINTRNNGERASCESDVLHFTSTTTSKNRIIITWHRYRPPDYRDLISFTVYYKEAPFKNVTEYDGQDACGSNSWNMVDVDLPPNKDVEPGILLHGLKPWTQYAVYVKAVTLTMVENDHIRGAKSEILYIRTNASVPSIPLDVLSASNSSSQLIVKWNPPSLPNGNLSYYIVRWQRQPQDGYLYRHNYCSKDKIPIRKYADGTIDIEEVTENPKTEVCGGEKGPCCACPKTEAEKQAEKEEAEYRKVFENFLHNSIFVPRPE
Sequence (P08069 741-1367 limits assumed): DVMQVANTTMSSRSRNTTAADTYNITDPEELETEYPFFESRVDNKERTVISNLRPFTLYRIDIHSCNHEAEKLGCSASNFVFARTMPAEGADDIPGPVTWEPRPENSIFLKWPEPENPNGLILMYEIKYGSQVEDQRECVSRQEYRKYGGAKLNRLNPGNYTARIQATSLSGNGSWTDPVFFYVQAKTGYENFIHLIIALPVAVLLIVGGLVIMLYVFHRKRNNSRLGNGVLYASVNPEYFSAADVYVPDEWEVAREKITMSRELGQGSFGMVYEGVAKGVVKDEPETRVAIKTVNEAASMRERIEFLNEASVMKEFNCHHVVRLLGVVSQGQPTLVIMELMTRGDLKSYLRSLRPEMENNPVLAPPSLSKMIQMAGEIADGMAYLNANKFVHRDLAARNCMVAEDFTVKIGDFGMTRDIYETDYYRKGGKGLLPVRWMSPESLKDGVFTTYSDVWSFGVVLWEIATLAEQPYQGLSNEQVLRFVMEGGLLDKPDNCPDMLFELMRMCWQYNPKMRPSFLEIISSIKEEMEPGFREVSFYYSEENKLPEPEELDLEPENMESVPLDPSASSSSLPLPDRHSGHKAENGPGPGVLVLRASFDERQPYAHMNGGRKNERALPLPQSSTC
pIC50: −log10 of the molar value.
Reported metric: pIC50

Record smiles: COc1cc2c(Oc3ccc(Nc4ccc(C(C)(C)C)cc4)cc3)ccnc2cc1OCCNCCO
Recorded result: < 5.00

---

molecular target: Epidermal growth factor receptor (Homo sapiens, UniProt P00533); assay: Inhibition of EGF-receptor autophosphorylation in intact cells
Sequence (P00533 whole entry): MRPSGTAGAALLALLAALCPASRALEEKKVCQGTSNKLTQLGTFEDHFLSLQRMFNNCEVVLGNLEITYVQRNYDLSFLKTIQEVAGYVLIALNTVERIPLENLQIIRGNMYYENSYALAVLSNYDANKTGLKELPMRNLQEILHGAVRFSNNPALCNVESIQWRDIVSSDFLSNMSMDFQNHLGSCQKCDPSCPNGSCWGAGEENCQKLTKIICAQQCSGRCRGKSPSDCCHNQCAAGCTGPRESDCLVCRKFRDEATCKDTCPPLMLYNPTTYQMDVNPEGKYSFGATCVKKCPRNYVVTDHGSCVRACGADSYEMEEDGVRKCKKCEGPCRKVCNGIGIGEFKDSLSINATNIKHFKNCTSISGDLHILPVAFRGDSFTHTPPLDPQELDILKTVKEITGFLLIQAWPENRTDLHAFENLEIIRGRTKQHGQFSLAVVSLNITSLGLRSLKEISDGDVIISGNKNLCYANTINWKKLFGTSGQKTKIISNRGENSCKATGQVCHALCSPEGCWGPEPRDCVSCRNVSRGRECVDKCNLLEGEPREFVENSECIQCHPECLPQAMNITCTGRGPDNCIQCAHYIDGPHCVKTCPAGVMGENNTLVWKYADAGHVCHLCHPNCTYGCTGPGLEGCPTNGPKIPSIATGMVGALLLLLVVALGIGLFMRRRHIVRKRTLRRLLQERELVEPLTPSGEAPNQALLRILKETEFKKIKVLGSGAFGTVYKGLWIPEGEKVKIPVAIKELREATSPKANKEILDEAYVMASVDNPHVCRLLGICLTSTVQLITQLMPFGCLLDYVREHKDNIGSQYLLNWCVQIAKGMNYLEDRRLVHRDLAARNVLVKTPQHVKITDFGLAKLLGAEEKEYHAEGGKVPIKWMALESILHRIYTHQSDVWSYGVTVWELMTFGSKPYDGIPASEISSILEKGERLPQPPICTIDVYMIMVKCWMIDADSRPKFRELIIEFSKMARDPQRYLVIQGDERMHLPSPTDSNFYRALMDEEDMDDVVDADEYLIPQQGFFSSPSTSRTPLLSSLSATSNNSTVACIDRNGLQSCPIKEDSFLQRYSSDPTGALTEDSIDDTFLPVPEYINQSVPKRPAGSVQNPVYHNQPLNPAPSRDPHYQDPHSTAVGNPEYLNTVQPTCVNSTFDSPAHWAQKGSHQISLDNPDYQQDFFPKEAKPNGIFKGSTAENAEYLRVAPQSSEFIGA
pIC50: −log10 of the molar value.

Record smiles: COc1cc2c(Oc3ccc(Nc4ccc(C(C)(C)C)cc4)cc3)ccnc2cc1OCCNCCO
pIC50: < 5.00

---

test: Solubility after at a pH 1.2; type: physicochemical; conditions: buffer, read-out: Activity
Reported metric: solubility

Record smiles: COc1cc2nccc(Oc3ccc(Nc4ccc(C(C)(C)C)cc4)cc3)c2cc1OC
Reported metric: solubility
Recorded result: 3 µg/mL

---

target: Hepatocyte growth factor receptor (Homo sapiens); test: Inhibition of c-Met autophosphorylation of in intact cells; assay type: cell-based

Record smiles: COc1cc2c(Oc3ccc(Nc4ccc(C(C)(C)C)cc4)cc3)ccnc2cc1OCCNCCO
Assayed target: Hepatocyte growth factor receptor (Homo sapiens)
IC50: > 10 µM

---

assay: Solubility after injection of water; assay type: physicochemical; details: read-out: Activity
Reported metric: solubility (µg/mL)

Record smiles: COc1cc2c(Oc3ccc(Nc4ccc(C(C)(C)C)cc4)cc3)ccnc2cc1OCCNCCO
Reported metric: solubility
Measurement units: µg/mL
Recorded result: 108

---

biological target: Fibroblast growth factor receptor 2 (Homo sapiens)
Sequence (P21802 whole entry): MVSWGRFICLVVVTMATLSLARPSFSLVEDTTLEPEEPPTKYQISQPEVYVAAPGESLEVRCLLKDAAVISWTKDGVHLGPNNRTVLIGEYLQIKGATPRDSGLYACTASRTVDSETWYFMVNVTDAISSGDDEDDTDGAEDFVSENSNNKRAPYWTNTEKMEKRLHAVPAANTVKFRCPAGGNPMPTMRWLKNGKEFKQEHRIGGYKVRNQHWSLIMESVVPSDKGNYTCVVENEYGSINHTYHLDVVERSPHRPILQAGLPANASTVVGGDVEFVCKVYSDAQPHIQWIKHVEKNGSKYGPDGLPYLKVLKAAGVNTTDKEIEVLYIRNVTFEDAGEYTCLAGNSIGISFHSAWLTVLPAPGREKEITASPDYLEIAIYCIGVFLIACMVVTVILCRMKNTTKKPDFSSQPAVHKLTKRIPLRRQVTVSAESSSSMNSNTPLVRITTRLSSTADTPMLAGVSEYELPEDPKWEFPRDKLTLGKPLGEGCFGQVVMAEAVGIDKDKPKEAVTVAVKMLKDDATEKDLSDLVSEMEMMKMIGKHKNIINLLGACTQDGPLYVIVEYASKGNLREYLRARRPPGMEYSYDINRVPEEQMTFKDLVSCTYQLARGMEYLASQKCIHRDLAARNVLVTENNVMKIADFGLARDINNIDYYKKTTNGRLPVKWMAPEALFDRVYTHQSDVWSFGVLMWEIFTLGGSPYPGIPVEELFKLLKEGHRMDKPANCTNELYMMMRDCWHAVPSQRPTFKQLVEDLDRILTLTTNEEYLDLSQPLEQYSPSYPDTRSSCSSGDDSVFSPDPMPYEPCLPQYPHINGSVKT
pIC50: −log10 of the molar value.
Reported metric: pIC50

Record smiles: COc1cc2nccc(Oc3ccc(Nc4ccc(C(C)(C)C)cc4)c(C(F)(F)F)c3)c2cc1OC
Comparator: <
Recorded result: 5.00
//
Record smiles: COc1ccc(Nc2ccc(Oc3ccnc4cc(OC)c(OC)cc34)cc2)cc1
Comparator: =
Recorded result: 6.11
//
Record smiles: COc1cc2c(Oc3ccc(Nc4ccc(C(C)(C)C)cc4)cc3F)ccnc2cc1OCCNCCO
Comparator: =
Recorded result: 7.15
